# Subject of test: Recombinant full-length human EP (Enteropeptidase) (Homo sapiens)
# Construct: Recombinant full-length human EP (PeproTech, Cat #450-48C); purchased PeproTech 450-48C
# Sequence (P98073 whole entry): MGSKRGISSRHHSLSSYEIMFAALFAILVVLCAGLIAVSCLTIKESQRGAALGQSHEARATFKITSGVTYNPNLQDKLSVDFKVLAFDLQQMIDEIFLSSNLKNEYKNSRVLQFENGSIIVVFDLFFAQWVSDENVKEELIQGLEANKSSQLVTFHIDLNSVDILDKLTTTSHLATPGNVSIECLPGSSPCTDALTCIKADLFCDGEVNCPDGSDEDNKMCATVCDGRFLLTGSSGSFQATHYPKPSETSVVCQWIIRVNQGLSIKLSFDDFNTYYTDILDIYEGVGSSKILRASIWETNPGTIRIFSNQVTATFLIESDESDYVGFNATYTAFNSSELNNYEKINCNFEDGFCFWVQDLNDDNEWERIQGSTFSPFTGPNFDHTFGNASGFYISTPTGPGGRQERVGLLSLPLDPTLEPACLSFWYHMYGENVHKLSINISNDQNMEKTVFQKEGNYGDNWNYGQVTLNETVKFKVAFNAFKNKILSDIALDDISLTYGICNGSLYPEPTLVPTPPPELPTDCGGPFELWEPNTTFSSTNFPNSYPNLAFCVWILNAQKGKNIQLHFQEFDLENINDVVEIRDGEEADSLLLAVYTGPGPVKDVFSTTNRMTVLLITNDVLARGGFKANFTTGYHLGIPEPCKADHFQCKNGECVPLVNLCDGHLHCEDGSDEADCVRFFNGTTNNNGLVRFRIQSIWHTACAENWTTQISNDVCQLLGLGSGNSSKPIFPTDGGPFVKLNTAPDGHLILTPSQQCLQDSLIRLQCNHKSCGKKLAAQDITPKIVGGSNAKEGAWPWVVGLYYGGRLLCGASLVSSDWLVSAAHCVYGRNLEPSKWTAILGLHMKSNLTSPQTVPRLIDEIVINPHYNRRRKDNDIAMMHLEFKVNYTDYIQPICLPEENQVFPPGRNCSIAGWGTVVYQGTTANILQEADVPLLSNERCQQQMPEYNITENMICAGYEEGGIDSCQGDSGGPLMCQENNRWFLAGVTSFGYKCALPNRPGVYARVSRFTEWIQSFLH
# Protocol summary: In vitro inhibition potencies against Enteropeptidase (EP), fluorescent peptide GDDDDK-naphthylamine substrate
# Assay type: biochemical
# Particulars: compound 0.1 μM, 300 μM substrate, 1.25 nM EP
Label rule met for high-side inhibition at 0.1 µM (at or above 50%) and rule not met for low-side inhibition at 0.1 µM (below it).

> print(dat)
                                   compound         class
1  CN(C(=N)N)c1ccc(C(=O)Oc2ccc(CC(=O)O)n3ncnc23)cc1  rule not met

Determine whether measured inhibition at 0.1 µM meets or exceeds 50% for `N=C(N)Nc1ccc(C(=O)Oc2ccc(CC(=O)O)n3ncnc23)cc1Cl`
rule not met

Determine whether measured inhibition at 0.1 µM meets or exceeds 50% for `C/C(=N\O)Nc1ccc(C(=O)Oc2ccc(CC(=O)O)n3ncnc23)cc1`
rule not met

Determine whether measured inhibition at 0.1 µM meets or exceeds 50% for `N=C(N)Nc1ccc(C(=O)Oc2cc(CCC(=O)O)cn3ncnc23)cc1`
rule not met

Determine whether measured inhibition at 0.1 µM meets or exceeds 50% for N=C(N)Nc1ccc(C(=O)Oc2ccc(CC(=O)NC(CC(=O)O)C(=O)O)n3ncnc23)cc1 (stereo not drawn)
rule not met

Determine whether measured inhibition at 0.1 µM meets or exceeds 50% for `N=C(N)Nc1ccc(C(=O)Oc2ccc(CC(=O)O)n3ncnc23)s1`
rule met

Determine whether measured inhibition at 0.1 µM meets or exceeds 50% for `N=C(N)Nc1ccc(C(=O)Oc2ccc(CC(=O)O)n3ncnc23)cc1F`
rule met

Determine whether measured inhibition at 0.1 µM meets or exceeds 50% for `CNC(=N)c1ccc(C(=O)Oc2ccc(CC(=O)O)n3ncnc23)cc1`
rule not met

Determine whether measured inhibition at 0.1 µM meets or exceeds 50% for `N=C(N)Nc1ccc(C(=O)Oc2cc(CC(=O)O)cn3ncnc23)cc1`
rule not met

All values here come from patent US20220281866A1.
